Measured values drawn from ChEMBL document CHEMBL4184242 for this set.

# Test system: Staphylococcus aureus
# assayRemarks: Antibacterial activity against methicillin-resistant Staphylococcus aureus isolate SA1114 by CLSI M100-S17 protocol based broth dilution method
# Type: functional
measurementLabel: MIC (µg/mL)
API: value field is a number in µg/mL; no unit string.

Problem: Suppose we examine the molecule `CC[C@@H](C)[C@@H](NC(=O)[C@@H](CCC(N)=O)NC(=O)[C@H](CO)NC(=O)[C@@H](NC(=O)[C@@H](Cc1ccccc1)NC)[C@@H](C)CC)C(=O)N[C@H](C(=O)N[C@@H](CO)C(=O)N[C@H]1C(=O)N[C@@H](C)C(=O)N[C@@H](CCSC)C(=O)N[C@@H]([C@@H](C)CC)C(=O)O[C@H]1C)[C@@H](C)CC` ; what MIC value has been reported?
Solution: 1

###

# Tested on: Staphylococcus aureus
# assayRemarks: Antibacterial activity against methicillin-resistant Staphylococcus aureus isolate SA1114 by CLSI M100-S17 protocol based broth dilution method
# Format: functional
Give MIC for every item shown.

Problem: Returns the measured MIC for the input compound. Input: `CC[C@@H](C)[C@@H](NC(=O)[C@@H](CCC(N)=O)NC(=O)[C@H](CO)NC(=O)[C@@H](NC(=O)[C@@H](Cc1ccccc1)NC)[C@@H](C)CC)C(=O)N[C@H](C(=O)N[C@@H](CO)C(=O)N[C@H]1C(=O)N[C@@H](C)C(=O)N2CCC[C@H]2C(=O)N[C@@H]([C@@H](C)CC)C(=O)O[C@H]1C)[C@@H](C)CC`
Solution: ≥ 32 µg/mL

Problem: Moving on to the next compound: `CC[C@@H](C)[C@@H](NC(=O)[C@@H](CCC(N)=O)NC(=O)[C@H](CO)NC(=O)[C@@H](NC(=O)[C@@H](Cc1ccccc1)NC)[C@@H](C)CC)C(=O)N[C@H](C(=O)N[C@@H](CO)C(=O)N[C@H]1C(=O)N[C@@H](C)C(=O)N[C@@H](Cc2ccc(OC)cc2)C(=O)N[C@@H]([C@@H](C)CC)C(=O)O[C@H]1C)[C@@H](C)CC`
Solution: ≥ 32 µg/mL

Problem: Repeat with `CC[C@@H](C)[C@@H](NC(=O)[C@@H](CCC(N)=O)NC(=O)[C@H](CO)NC(=O)[C@@H](NC(=O)[C@@H](Cc1ccccc1)NC)[C@@H](C)CC)C(=O)N[C@H](C(=O)N[C@@H](CO)C(=O)N[C@H]1C(=O)N[C@@H](C)C(=O)N[C@@H](CC(=O)O)C(=O)N[C@@H]([C@@H](C)CC)C(=O)O[C@H]1C)[C@@H](C)CC`
Solution: ≥ 32 µg/mL

###

# Tested on: Staphylococcus aureus
# assayRemarks: Antibacterial activity against methicillin-resistant Staphylococcus aureus isolate SA1114 by CLSI M100-S17 protocol based broth dilution method
# Format: functional
Exercise: state measured MIC for each of the compounds provided.

Problem: Need MIC of `CCC[C@@H]1NC(=O)[C@H](C)NC(=O)[C@H](NC(=O)[C@H](CO)NC(=O)[C@@H](NC(=O)[C@H](NC(=O)[C@@H](CCC(N)=O)NC(=O)[C@H](CO)NC(=O)[C@@H](NC(=O)[C@@H](Cc2ccccc2)NC)[C@@H](C)CC)[C@H](C)CC)[C@@H](C)CC)[C@H](C)OC(=O)[C@H]([C@@H](C)CC)NC1=O` , thanks.
Solution: 1 to 2 µg/mL

Problem: Cool, now `CC[C@@H](C)[C@@H](NC(=O)[C@@H](CCC(N)=O)NC(=O)[C@H](CO)NC(=O)[C@@H](NC(=O)[C@@H](Cc1ccccc1)NC)[C@@H](C)CC)C(=O)N[C@H](C(=O)N[C@@H](CO)C(=O)N[C@H]1C(=O)N[C@@H](C)C(=O)N[C@H](CCCCN)C(=O)N[C@@H]([C@@H](C)CC)C(=O)O[C@H]1C)[C@@H](C)CC`
Solution: ≥ 32 µg/mL

Problem: Try this compound too: `CC[C@@H](C)[C@@H](NC(=O)[C@@H](CCC(N)=O)NC(=O)[C@H](CO)NC(=O)[C@@H](NC(=O)[C@@H](Cc1ccccc1)NC)[C@@H](C)CC)C(=O)N[C@H](C(=O)N[C@@H](CO)C(=O)N[C@H]1C(=O)N[C@@H](C)C(=O)N[C@@H]([C@@H](C)O)C(=O)N[C@@H]([C@@H](C)CC)C(=O)O[C@H]1C)[C@@H](C)CC`
Solution: 16 µg/mL

Problem: Please give the result for `CC[C@@H](C)[C@@H](NC(=O)[C@@H](CCC(N)=O)NC(=O)[C@H](CO)NC(=O)[C@@H](NC(=O)[C@@H](Cc1ccccc1)NC)[C@@H](C)CC)C(=O)N[C@H](C(=O)N[C@@H](CO)C(=O)N[C@H]1C(=O)N[C@@H](C)C(=O)N[C@@H](Cc2c[nH]c3ccccc23)C(=O)N[C@@H]([C@@H](C)CC)C(=O)O[C@H]1C)[C@@H](C)CC` too.
Solution: 8 to 16 µg/mL

Problem: Let us now turn to `CC[C@@H](C)[C@@H](NC(=O)[C@@H](CCC(N)=O)NC(=O)[C@H](CO)NC(=O)[C@@H](NC(=O)[C@@H](Cc1ccccc1)NC)[C@@H](C)CC)C(=O)N[C@H](C(=O)N[C@@H](CO)C(=O)N[C@H]1C(=O)N[C@@H](C)C(=O)N[C@@H](Cc2ccc(O)cc2)C(=O)N[C@@H]([C@@H](C)CC)C(=O)O[C@H]1C)[C@@H](C)CC`
Solution: 8 µg/mL

Problem: Same lookup for `CC[C@@H](C)[C@@H](NC(=O)[C@@H](CCC(N)=O)NC(=O)[C@H](CO)NC(=O)[C@@H](NC(=O)[C@@H](Cc1ccccc1)NC)[C@@H](C)CC)C(=O)N[C@H](C(=O)N[C@@H](CO)C(=O)N[C@H]1C(=O)N[C@@H](C)C(=O)N[C@@H](CCC(=O)O)C(=O)N[C@@H]([C@@H](C)CC)C(=O)O[C@H]1C)[C@@H](C)CC` , please.
Solution: ≥ 32 µg/mL

###

# Tested on: Staphylococcus aureus
# assayRemarks: Antibacterial activity against methicillin-resistant Staphylococcus aureus isolate SA1114 by CLSI M100-S17 protocol based broth dilution method
# Assay type: functional
measurementLabel: log10(MIC) (log10 of the value in µg/mL)
// stored as log10 of MIC expressed in µg/mL

Problem: Write down the reported log10(MIC) of `CC[C@@H](C)[C@@H](NC(=O)[C@@H](CCC(N)=O)NC(=O)[C@H](CO)NC(=O)[C@@H](NC(=O)[C@@H](Cc1ccccc1)NC)[C@@H](C)CC)C(=O)N[C@H](C(=O)N[C@@H](CO)C(=O)N[C@H]1C(=O)N[C@@H](C)C(=O)N[C@@H](CO)C(=O)N[C@@H]([C@@H](C)CC)C(=O)O[C@H]1C)[C@@H](C)CC` , test system: Staphylococcus aureus.
Solution: 1.20

Problem: What do we get for `CC[C@@H]1NC(=O)[C@H](C)NC(=O)[C@H](NC(=O)[C@H](CO)NC(=O)[C@@H](NC(=O)[C@H](NC(=O)[C@@H](CCC(N)=O)NC(=O)[C@H](CO)NC(=O)[C@@H](NC(=O)[C@@H](Cc2ccccc2)NC)[C@@H](C)CC)[C@H](C)CC)[C@@H](C)CC)[C@H](C)OC(=O)[C@H]([C@@H](C)CC)NC1=O` ?
Solution: 0.60

Problem: And `CC[C@@H](C)[C@@H](NC(=O)[C@@H](CCC(N)=O)NC(=O)[C@H](CO)NC(=O)[C@@H](NC(=O)[C@@H](Cc1ccccc1)NC)[C@@H](C)CC)C(=O)N[C@H](C(=O)N[C@@H](CO)C(=O)N[C@H]1C(=O)N[C@@H](C)C(=O)N[C@@H](C)C(=O)N[C@@H]([C@@H](C)CC)C(=O)O[C@H]1C)[C@@H](C)CC` ?
Solution: 0.90

Problem: Also, `CC[C@@H](C)[C@@H](NC(=O)[C@@H](CCC(N)=O)NC(=O)[C@H](CO)NC(=O)[C@@H](NC(=O)[C@@H](Cc1ccccc1)NC)[C@@H](C)CC)C(=O)N[C@H](C(=O)N[C@@H](CO)C(=O)N[C@H]1C(=O)N[C@@H](C)C(=O)N[C@@H](CC(N)=O)C(=O)N[C@@H]([C@@H](C)CC)C(=O)O[C@H]1C)[C@@H](C)CC` please.
Solution: 1.20

Problem: Item: `CC[C@@H](C)[C@@H](NC(=O)[C@@H](CCC(N)=O)NC(=O)[C@H](CO)NC(=O)[C@@H](NC(=O)[C@@H](Cc1ccccc1)NC)[C@@H](C)CC)C(=O)N[C@H](C(=O)N[C@@H](CO)C(=O)N[C@H]1C(=O)N[C@@H](C)C(=O)N[C@@H](Cc2ccc([N+](=O)[O-])cc2)C(=O)N[C@@H]([C@@H](C)CC)C(=O)O[C@H]1C)[C@@H](C)CC`
Solution: 0.60

Problem: What do you get for `CC[C@@H](C)[C@@H](NC(=O)[C@@H](CCC(N)=O)NC(=O)[C@H](CO)NC(=O)[C@@H](NC(=O)[C@@H](Cc1ccccc1)NC)[C@@H](C)CC)C(=O)N[C@H](C(=O)N[C@@H](CO)C(=O)N[C@H]1C(=O)N[C@@H](C)C(=O)N[C@@H](C2CCCCC2)C(=O)N[C@@H]([C@@H](C)CC)C(=O)O[C@H]1C)[C@@H](C)CC` ?
Solution: 0.00

Problem: // repeat for `CC[C@@H](C)[C@@H](NC(=O)[C@@H](CCC(N)=O)NC(=O)[C@H](CO)NC(=O)[C@@H](NC(=O)[C@@H](Cc1ccccc1)NC)[C@@H](C)CC)C(=O)N[C@H](C(=O)N[C@@H](CO)C(=O)N[C@H]1C(=O)N[C@@H](C)C(=O)N[C@@H](Cc2ccccc2)C(=O)N[C@@H]([C@@H](C)CC)C(=O)O[C@H]1C)[C@@H](C)CC` and report
Solution: 0.60

Problem: What about this molecule? `CC[C@@H](C)[C@@H](NC(=O)[C@@H](CCC(N)=O)NC(=O)[C@H](CO)NC(=O)[C@@H](NC(=O)[C@@H](Cc1ccccc1)NC)[C@@H](C)CC)C(=O)N[C@H](C(=O)N[C@@H](CO)C(=O)N[C@H]1C(=O)N[C@@H](C)C(=O)N[C@@H]([C@@H](C)CC)C(=O)N[C@@H]([C@@H](C)CC)C(=O)O[C@H]1C)[C@@H](C)CC`
Solution: 0.00

Problem: Can you check `CC[C@@H](C)[C@@H](NC(=O)[C@@H](CCC(N)=O)NC(=O)[C@H](CO)NC(=O)[C@@H](NC(=O)[C@@H](Cc1ccccc1)NC)[C@@H](C)CC)C(=O)N[C@H](C(=O)N[C@@H](CO)C(=O)N[C@H]1C(=O)N[C@@H](C)C(=O)N[C@@H](Cc2ccc(F)cc2)C(=O)N[C@@H]([C@@H](C)CC)C(=O)O[C@H]1C)[C@@H](C)CC` next?
Solution: 0.60

Problem: Another molecule to look at: `CC[C@@H](C)[C@@H](NC(=O)[C@@H](CCC(N)=O)NC(=O)[C@H](CO)NC(=O)[C@@H](NC(=O)[C@@H](Cc1ccccc1)NC)[C@@H](C)CC)C(=O)N[C@H](C(=O)N[C@@H](CO)C(=O)N[C@H]1C(=O)N[C@@H](C)C(=O)N[C@@H](Cc2ccc(Cl)cc2)C(=O)N[C@@H]([C@@H](C)CC)C(=O)O[C@H]1C)[C@@H](C)CC`
Solution: 0.60

Problem: For `CC[C@@H](C)[C@@H](NC(=O)[C@@H](CCC(N)=O)NC(=O)[C@H](CO)NC(=O)[C@@H](NC(=O)[C@@H](Cc1ccccc1)NC)[C@@H](C)CC)C(=O)N[C@H](C(=O)N[C@@H](CO)C(=O)N[C@H]1C(=O)N[C@@H](C)C(=O)N[C@@H](CC(C)C)C(=O)N[C@@H]([C@@H](C)CC)C(=O)O[C@H]1C)[C@@H](C)CC` then?
Solution: 0.30
